The origin of these recorded values is patent US20120035187A1.

Tested on: PC12-HS cells
assay procedure: Evaluation A: neurocyte (cell)-growth-promoting action, ALAMAR BLUE
Assay type: cell-based, rat
conditions: compound concentration 50 ng/ml
property measured: Action of enhancing cell growth (%)
Give just the numeric value; % need not be written.

What does the record list as Action of enhancing cell growth (%) for CCCCCCCCN1C=CC(=CC=C(C=Cc2cc[n+](CCCCCCCC)c3ccccc23)c2cc[n+](CCCCCCCC)c3ccccc23)c2ccccc21.[I-].[I-] ?
136

Entry to check: CCCCCCN1C=CC(=CC=C(C=Cc2cc[n+](CCCCCC)c3ccccc23)c2cc[n+](CCCCCC)c3ccccc23)c2ccccc21.[I-].[I-]
123

Entry to check: CCCCN1C=C/C(=C/C=C(/C=C/c2cc[n+](CCCC)c3ccccc23)c2cc[n+](CCCC)c3ccccc23)c2ccccc21
357

Entry to check: CCN1C(C)=CS\C1=C/C=C(\C=C\c1scc(C)[n+]1CC)c1scc(C)[n+]1CC.[I-].[I-]
140

Entry to check: CCCCCCN1C(C)=CS\C1=C/C=C(\C=C\c1scc(C)[n+]1CCCCCC)c1scc(C)[n+]1CCCCCC.[I-].[I-]
601

Entry to check: CCN1C=CC(=CC=C(C=Cc2cc[n+](CC)c3ccccc23)c2cc[n+](CC)c3ccccc23)c2ccccc21.[I-].[I-]
181

Entry to check: CCCCCCCN1C=CC(=CC=C(C=Cc2cc[n+](CCCCCCC)c3ccccc23)c2cc[n+](CCCCCCC)c3ccccc23)c2ccccc21.[I-].[I-]
111

====

Tested on: PC12-HS cells
assay procedure: Evaluation A: neurocyte (cell)-growth-promoting action, ALAMAR BLUE
Format: cell-based, rat
conditions: 100 μl/well of 100 ng/ml test solution, 3 days, control = 100
property measured: Action of enhancing cell growth (%)
Give just the numeric value; % need not be written.

Lab note: need Action of enhancing cell growth (%) with PC12-HS cells for entry CCCCCCCCCCCCN1C(C)=CS\C1=C/C=C(/C=C/c1scc(C)[n+]1CCCCCCCCCCCC)c1scc(C)[n+]1CCCCCCCCCCCC.[I-].[I-] , please look it up.
199

Entry to check: CCN1C(C)=CS\C1=C/C=C(\C=C\c1scc(C)[n+]1CC)c1scc(C)[n+]1CC.[I-].[I-]
125

Entry to check: CCCCCN1C(C)=CS\C1=C/C=C(\C=C\c1scc(C)[n+]1CCCCC)c1scc(C)[n+]1CCCCC.[I-].[I-]
553

Entry to check: CCCN1C(C)=CS\C1=C/C=C(\C=C\c1scc(C)[n+]1CCC)c1scc(C)[n+]1CCC.[I-].[I-]
212

Entry to check: CCCCCCN1C(C)=CS\C1=C/C=C(\C=C\c1scc(C)[n+]1CCCCCC)c1scc(C)[n+]1CCCCCC.[I-].[I-]
560

Entry to check: CCCCCCCCCCCN1C(C)=CS\C1=C/C=C(/C=C/c1scc(C)[n+]1CCCCCCCCCCC)c1scc(C)[n+]1CCCCCCCCCCC.[I-].[I-]
191

Entry to check: CCCCN1C(C)=CS\C1=C/C=C(\C=C\c1scc(C)[n+]1CCCC)c1scc(C)[n+]1CCCC.[I-].[I-]
581

Entry to check: CCCCCCCCCCN1C(C)=CS\C1=C/C=C(\C=C\c1scc(C)[n+]1CCCCCCCCCC)c1scc(C)[n+]1CCCCCCCCCC.[I-].[I-]
399

Entry to check: CC1=CS\C(=C/C=C(\C=C\c2scc(C)[n+]2C)c2scc(C)[n+]2C)N1C.[I-].[I-]
126

Entry to check: CCCCCCCCCN1C(C)=CS\C1=C/C=C(\C=C\c1scc(C)[n+]1CCCCCCCCC)c1scc(C)[n+]1CCCCCCCCC.[I-].[I-]
550

====

assay procedure: Hydroxyl radical-scavenging activity, ESR (Fenton reaction)
conditions: concentration of compound 6.25 μg/ml
Could you please report measured Residual ratio of hydroxyl radical (%) for the items listed next?
Give just the numeric value; % need not be written.

What does the record list as Residual ratio of hydroxyl radical (%) for CC1=NN(c2ccccc2)C(=O)C1 [Edaravone, 3-methyl-1-phenyl-2-pyrazoline-5-one, reference compound] ?
100

Entry to check: CCN1/C(=C/C=C(/C=C/c2sc3ccccc3[n+]2CC)c2sc3ccccc3[n+]2CC)Sc2ccccc21.[I-].[I-]
51

Entry to check: CCN1C=CC(=CC=C(C=Cc2cc[n+](CC)c3ccccc23)c2cc[n+](CC)c3ccccc23)c2ccccc21.[I-].[I-]
49

Entry to check: CC[n+]1ccccc1/C=C/c1ccc(N(C)C)cc1
50

====

System: ICR mice administered with amyloid β fragment
assay procedure: Degeneration or defect of hippocampal pyramidal cells, mouse administered with amyloid β fragment, agents of Example 1
Format: in vivo
conditions: 4-point grade score none (0) to severe (3), average of 10 mice; agent of Example 1, 0.3 ml/head intraperitoneally once a day up to the 8th day
property measured: Degeneration/defluxion of hippocampal pyramidal cell
Hey, just send me the number, nothing else.

What does the record list as Degeneration/defluxion of hippocampal pyramidal cell for CCN1/C(=C/C=C(/C=C/c2sc3ccccc3[n+]2CC)c2sc3ccccc3[n+]2CC)Sc2ccccc21.[I-].[I-] ?
0.9

Entry to check: COc1ccc2oc(/C=C/c3ccc(N(C)C)cc3)[n+](C)c2c1
1.9

Entry to check: CCCCCCCCCN1C(C)=CS\C1=C/C=C(\C=C\c1scc(C)[n+]1CCCCCCCCC)c1scc(C)[n+]1CCCCCCCCC.[I-].[I-]
1.1

Entry to check: CCN1C=CC(=CC=C(C=Cc2cc[n+](CC)c3ccccc23)c2cc[n+](CC)c3ccccc23)c2ccccc21.[I-].[I-]
1.1

Entry to check: CCCCCCCCN1C=CC(=CC=C(C=Cc2cc[n+](CCCCCCCC)c3ccccc23)c2cc[n+](CCCCCCCC)c3ccccc23)c2ccccc21.[I-].[I-]
1.5

Entry to check: CN(C)c1ccc(/C=C/c2oc3ccccc3[n+]2C)cc1
2.2

Entry to check: CCCCCCCN1C=CC(=CC=C(C=Cc2cc[n+](CCCCCCC)c3ccccc23)c2cc[n+](CCCCCCC)c3ccccc23)c2ccccc21.[I-].[I-]
1.4

Entry to check: CCCCN1C=C/C(=C/C=C(/C=C/c2cc[n+](CCCC)c3ccccc23)c2cc[n+](CCCC)c3ccccc23)c2ccccc21
1.1

Entry to check: CC[n+]1ccccc1/C=C/c1ccc(N(C)C)cc1
2.1

====

Test system: PC12-HS cells
assay procedure: Evaluation B: neurite-outgrowth action in presence of NGF
Format: cell-based, rat
conditions: compound concentration 400 ng/ml
Label satisfied when Action on neurite outgrowth (%) is strictly below 60%; at or above that, label not satisfied.

Report whether reported Action on neurite outgrowth (%) is lower than 60% (strictly) for CCCCCN1C=CC(=CC=C(C=Cc2cc[n+](CCCCC)c3ccccc23)c2cc[n+](CCCCC)c3ccccc23)c2ccccc21.[I-].[I-]
not satisfied

Entry to check: CCN1C=CC(=CC=C(C=Cc2cc[n+](CC)c3ccccc23)c2cc[n+](CC)c3ccccc23)c2ccccc21.[I-].[I-]
satisfied

Entry to check: CCCCCCN1C=CC(=CC=C(C=Cc2cc[n+](CCCCCC)c3ccccc23)c2cc[n+](CCCCCC)c3ccccc23)c2ccccc21.[I-].[I-]
satisfied

Entry to check: CCCN1C=CC(=CC=C(C=Cc2cc[n+](CCC)c3ccccc23)c2cc[n+](CCC)c3ccccc23)c2ccccc21.[I-].[I-]
satisfied

Entry to check: CCCCN1C=C/C(=C/C=C(/C=C/c2cc[n+](CCCC)c3ccccc23)c2cc[n+](CCCC)c3ccccc23)c2ccccc21
not satisfied

Entry to check: CCCCCCCCN1C=CC(=CC=C(C=Cc2cc[n+](CCCCCCCC)c3ccccc23)c2cc[n+](CCCCCCCC)c3ccccc23)c2ccccc21.[I-].[I-]
satisfied

Entry to check: CCCCCCN1C(C)=CS\C1=C/C=C(\C=C\c1scc(C)[n+]1CCCCCC)c1scc(C)[n+]1CCCCCC.[I-].[I-]
satisfied

Entry to check: CCCCCCCN1C=CC(=CC=C(C=Cc2cc[n+](CCCCCCC)c3ccccc23)c2cc[n+](CCCCCCC)c3ccccc23)c2ccccc21.[I-].[I-]
not satisfied

====

Could you please report measured Residual ratio of hydroxyl radical (%) for the items listed next?
assay procedure: Hydroxyl radical-scavenging activity, ESR (Fenton reaction)
conditions: concentration of compound 12.5 μg/ml
Give just the numeric value; % need not be written.

What does the record list as Residual ratio of hydroxyl radical (%) for CC1=NN(c2ccccc2)C(=O)C1 [Edaravone, 3-methyl-1-phenyl-2-pyrazoline-5-one, reference compound] ?
100

Entry to check: CCN1C=CC(=CC=C(C=Cc2cc[n+](CC)c3ccccc23)c2cc[n+](CC)c3ccccc23)c2ccccc21.[I-].[I-]
26

Entry to check: CC[n+]1ccccc1/C=C/c1ccc(N(C)C)cc1
30

Entry to check: CCN1/C(=C/C=C(/C=C/c2sc3ccccc3[n+]2CC)c2sc3ccccc3[n+]2CC)Sc2ccccc21.[I-].[I-]
32
